Target: T1, polypeptide GC3pep (human)
T1 construct: also called membrane proximal polypeptide GC3pep
T1 peptide: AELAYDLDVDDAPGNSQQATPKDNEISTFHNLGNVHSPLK
Test: ELISA, GC3pep coated, antibody 0.1 nM;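 also: antibody allowed to bind the coated plate 2 h at 37 °C, then detected via HRP-conjugated secondary antibody and TMB development for 10 min, stopped with HCl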
readout type: OD450 nm (OD450 nm)
Kindly provide the numeric value in OD450 nm only, without the unit symbol.

F4.13.7 (antibody, human IgG1, kappa, V domains shown, human-murine chimeric antibody) VH: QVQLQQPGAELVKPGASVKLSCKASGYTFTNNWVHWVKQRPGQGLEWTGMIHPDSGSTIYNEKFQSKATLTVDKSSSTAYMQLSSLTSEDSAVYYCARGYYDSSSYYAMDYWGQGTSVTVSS VL: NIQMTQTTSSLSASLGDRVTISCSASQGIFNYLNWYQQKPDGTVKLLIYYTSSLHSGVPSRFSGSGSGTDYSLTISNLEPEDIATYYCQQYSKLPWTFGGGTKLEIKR :: 0.03

Switching to the query record.
Query block: Record request: OD450 nm value, item F2.169.2 (antibody, human IgG1, kappa, V domains shown, human-murine chimeric antibody) VH: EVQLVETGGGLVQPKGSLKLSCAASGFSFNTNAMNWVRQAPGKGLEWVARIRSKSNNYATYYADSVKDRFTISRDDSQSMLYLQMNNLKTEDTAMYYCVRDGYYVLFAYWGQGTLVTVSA VL: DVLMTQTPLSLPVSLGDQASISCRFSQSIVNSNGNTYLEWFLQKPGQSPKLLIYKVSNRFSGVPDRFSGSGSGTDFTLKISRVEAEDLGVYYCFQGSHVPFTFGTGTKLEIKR
Result block: 1.25
